assay notes: qHTS for Inhibitors of human tyrosyl-DNA phosphodiesterase 1 (TDP1): qHTS in cells in presence of CPT; also: nearly all actives have a fitted effect of over 55% in size
condition label: chicken DT40 Tdp1-/-;hTDP1 cells + 20 nM CPT, ATP luminescence, 48 h; series mostly up to 46.2 µM
In all, about 420,000 compounds went through this assay and about 50,000 (12%) were called active. Roughly 26% stayed inconclusive and do not appear here. Calls follow the shape of the dose curve; as a rule, active = well fitted inhibition curve with a large enough effect; inconclusive = small, poorly fitted or top-dose-only effect; inactive = flat fitted curve, though single readings scatter. The entries come from a sample that favours actives as a whole.
Pick one: active, inactive

Below, 10 molecules whose answers are already recorded.
[
  {
    "molecule": "CCCCNC(=O)C1(O)c2ccccc2NC(=O)N1c1ccc(Cl)cc1 (centres undefined)",
    "assigned label": "inactive"
  },
  {
    "molecule": "CC(=O)Nc1ccc(/C=N/NC(=O)c2cccs2)cc1",
    "assigned label": "inactive"
  },
  {
    "molecule": "COc1ccc(C(=O)NCCn2nc(C)cc2C)cc1OC1CCN(C(C)=O)CC1",
    "assigned label": "inactive"
  },
  {
    "molecule": "Cn1c(SCC(=O)N2CCCC2)nnc1-c1ccc2c(c1)OCO2",
    "assigned label": "inactive"
  },
  {
    "molecule": "Cc1ccccc1-n1cc(CNC(=O)C2CCC(=O)N(C3CC3)C2)cn1 (centres undefined)",
    "assigned label": "inactive"
  },
  {
    "molecule": "O=C(O)CC1(CC(=O)Nc2cccc(C(F)(F)F)c2)CCCC1",
    "assigned label": "inactive"
  },
  {
    "molecule": "CCOC(=O)c1c(C)oc(C)c(C(=O)OCC)c1=O",
    "assigned label": "inactive"
  },
  {
    "molecule": "COCCCn1c(=O)/c(=C/c2ccccc2OC(C)C)s/c1=C(\\C#N)C(=O)Nc1ccc(C(=O)O)cc1",
    "assigned label": "active"
  },
  {
    "molecule": "CSc1nsc(SCC(=O)Nc2cc(C(=O)O)ccc2C)n1",
    "assigned label": "inactive"
  },
  {
    "molecule": "COc1cccc(CNC(=O)c2cc(=O)[nH]c3ccc(S(=O)(=O)N4CCCCC4)cc23)c1",
    "assigned label": "inactive"
  }
]

For COCCN(CCOC)c1nc(N)c2c(N)nc3c(c2c1C#N)CC(=O)N3Cc1ccc(Cl)cc1 , what call appears in the results of this test?
inactive

For CC12CCC(C(=O)N3CCN(c4ncccn4)CC3)(c3nc4ccccc4nc31)C2(C)C (centres undefined) , what call appears in the results of this test?
inactive

For Cc1cc(C)cc(NC(=O)NCc2ccccn2)c1 , what call appears in the results of this test?
inactive

For CCCCN(C)CCCNC(=O)c1cc(-c2cccs2)nc2ccccc12 , what call appears in the results of this test?
active

For CCCOC1CCCN(Cc2cn(C)nc2-c2ccccc2F)C1 (centres undefined) , what call appears in the results of this test?
inactive

For COc1ccc(OCCn2ccnc2C)cc1 , what call appears in the results of this test?
inactive

For C[C@]12CC[C@H](O)CC1=CCC1C2CC[C@@]2(C)C1CC[C@@H]2NC(=O)CCC(=O)O (some centres undefined) , what call appears in the results of this test?
inactive

For Cc1ccc(-c2nn(CC(C)(C)C)c3ncnc(N)c23)cc1 , what call appears in the results of this test?
active

For CC(=O)N1C[C@@H](CO)[C@@H](N(C)C(=O)c2ccco2)C[C@H]1c1ccccc1 , what call appears in the results of this test?
inactive

For Cc1ccnc(NC(=O)CNC(=O)c2ccccc2)c1 , what call appears in the results of this test?
inactive

For CCN(CC)S(=O)(=O)c1ccc(NC(=O)c2cnc(C)cn2)cc1 , what call appears in the results of this test?
inactive

For CC(C)Cn1cc(-c2cncc3nccn23)cn1 , what call appears in the results of this test?
inactive

For CC1=C(C(=O)OCc2ccccc2)C(c2ccc(C(F)(F)F)cc2)NC(=O)N1CCCCCC(=O)O (centres undefined) , what call appears in the results of this test?
inactive

For COc1ccc(CNC(=O)CSc2n[nH]c(-c3ccc(F)cc3)n2)cc1 , what call appears in the results of this test?
inactive

For COc1ccc(N2c3ccccc3CN(Cc3ccccc3)[C@@H](C)[C@H]2Cc2ccc(-c3ccccc3)cc2)cc1 , what call appears in the results of this test?
active

For CN(C)CC(C)(C)CNC(=O)c1cc(Br)cc(Br)c1O , what call appears in the results of this test?
inactive

For COc1ccc(OCCCn2c(C)nc3cc(C)c(C)cc32)cc1 , what call appears in the results of this test?
active

For Cc1c(C(=O)NC2CCCCC2)oc2ccccc12 , what call appears in the results of this test?
inactive

For Cc1cc(/C=N/Nc2ccc([N+](=O)[O-])cn2)c(C)n1-c1cccc(C(=O)O)c1 , what call appears in the results of this test?
inactive

For Cc1cc(C)c(C)c(S(=O)(=O)N[C@@H](C)C(=O)OC(C)C(=O)NC(N)=O)c1C (some centres undefined) , what call appears in the results of this test?
inactive

For O=C(Nc1ccc(Cl)cc1)Nc1ccc(C(=O)N2CCOCC2)cc1 , what call appears in the results of this test?
inactive
